- measurement.target: TGFβ R1 (Homo sapiens, UniProt P36897)
- Sequence (P36897 34-503): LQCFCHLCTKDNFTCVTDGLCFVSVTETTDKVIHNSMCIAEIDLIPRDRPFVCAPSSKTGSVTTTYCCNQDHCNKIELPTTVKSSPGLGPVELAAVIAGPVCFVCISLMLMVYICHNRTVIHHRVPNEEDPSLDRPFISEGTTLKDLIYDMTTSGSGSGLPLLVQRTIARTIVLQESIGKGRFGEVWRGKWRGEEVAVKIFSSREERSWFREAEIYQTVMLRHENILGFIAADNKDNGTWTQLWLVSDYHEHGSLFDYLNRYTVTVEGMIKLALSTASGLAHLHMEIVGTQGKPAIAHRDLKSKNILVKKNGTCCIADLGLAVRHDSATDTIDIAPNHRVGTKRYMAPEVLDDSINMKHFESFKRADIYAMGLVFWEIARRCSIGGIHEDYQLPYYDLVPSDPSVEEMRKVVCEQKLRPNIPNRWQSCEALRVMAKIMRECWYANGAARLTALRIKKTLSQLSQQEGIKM
- method.summary: TGFβ R1 autophosphorylation protocol (33P-ATP, phosphocellulose filter plate)
- Assay type: biochemical
- condition.label: 10 uM ATP, 170 nM TGFβ R1, 20 minutes at room temperature, read-out: IC50 for Kinase Inhibition
endpoint.name: IC50 (nM)
State the answer as a number, implicitly in nM.

// fetch TGFβ R1 (Homo sapiens, UniProt P36897) IC50 for COc1cnc(-c2cc(Cl)ccc2F)nc1Nc1ccncc1C(=O)N[C@H]1CN[C@@H](C(=O)N(C)C)C1 [Compound 107]
90

What do you have for CNC(=O)c1cnccc1Nc1nc(-c2cc(Cl)ccc2F)ncc1Br [Compound 93] ?
30

Try this compound next: COc1cnc(-c2cc(Cl)ccc2F)nc1Nc1ccncc1C(=O)NCCNC(=O)OC(C)(C)C [Compound 32]
560

====

- measurement.target: TGFβ R1 (Homo sapiens, UniProt P36897)
- method.summary: TGFβ R1 autophosphorylation protocol (33P-ATP, phosphocellulose filter plate)
- Format: biochemical
- condition.label: 10 uM ATP, 170 nM TGFβ R1, room temperature 20 minutes, read-out: IC50 for Kinase Inhibition
endpoint.name: IC50 (nM)
# unit: nM | format: bare number

Need IC50 of CC(C)c1cnc(-c2cc(Cl)ccc2F)nc1Nc1ccncc1C(=O)N1CCN[C@@H](C(C)C)C1 , thanks.
1090

Another compound to check: CNC(=O)[C@@H]1CCCCN1CCCNC(=O)c1cnccc1Nc1nc(-c2cc(Cl)ccc2F)ncc1C(C)C
12

Also check COc1cnc(-c2cc(Cl)ccc2F)nc1Nc1ccncc1C(=O)N1CC[C@@H](N)C1
1160

COc1cnc(-c2cc(Cl)ccc2F)nc1Nc1ccncc1C(=O)NCCNCCOC1O[C@@H](CO)[C@H](O)[C@@H](O)[C@@H]1O (stereo partly shown) ?
9
